tested on: CAOV3; test: Primary qHTS to identify gynecologic anti-cancer compounds using libraries of approved drugs and bioactive compounds (AID 1345084); conditions: Gynecologic cancer cell panel viability, ATPlite luminescence, 48 h; series mostly up to 57.5 µM; note: nearly all actives have a fitted effect of over 55% in size
Inconclusive results are not listed. Activity calls are given as the source filed them. Calls come from the whole dose curve; as a rule, active = well fitted cell-killing curve with a large enough effect; inconclusive = small, poorly fitted or top-dose-only effect, or effect the other way; inactive = flat fitted curve, though single readings scatter. Peptide text beside a SMILES is read from it.
Outcomes: active, inactive

INSERT INTO measurements (compound, label) VALUES
  ('NS(=O)(=O)c1cc(C(=O)O)c(NCc2ccco2)cc1Cl', 'inactive'),
  ('C=C(c1ccc(C(=O)O)cc1)c1cc2c(cc1C)C(C)(C)CCC2(C)C', 'inactive'),
  ('O=C(NOCC1CC1)c1ccc(F)c(F)c1Nc1ccc(I)cc1Cl', 'inactive'),
  ('Cc1cc2c(s1)Nc1ccccc1N=C2N1CCN(C)CC1', 'inactive'),
  ('CN(C)C(=O)COC(=O)Cc1ccc(OC(=O)c2ccc(N=C(N)N)cc2)cc1', 'inactive'),
  ('Nc1ncn([C@H]2C[C@H](O)[C@@H](CO)O2)c(=O)n1', 'inactive'),
  ('CCC[C@@H]1C[C@@H](C(=O)N[C@@H]([C@H]2O[C@H](SC)[C@H](O)[C@@H](O)[C@H]2O)[C@@H](C)O)N(C)C1', 'inactive'),
  ('CCCc1cc(=O)[nH]c(=S)[nH]1', 'inactive'),
  ('Cc1nc2n(c(=O)c1CCN1CCC(c3noc4cc(F)ccc34)CC1)CCCC2', 'inactive'),
  ('CN(C)[C@@H](CCOc1cccc2ccccc12)c1ccccc1', 'inactive'),
  ('CC1(C)CCC(C)(C)c2cc(NC(=O)c3ccc(C(=O)O)cc3)ccc21', 'inactive'),
  ('O=C(O)c1cc(=O)c2c(OCC(O)COc3cccc4oc(C(=O)O)cc(=O)c34)cccc2o1', 'inactive'),
  ('CCC1=C(C)CN(C(=O)NCCc2ccc(S(=O)(=O)NC(=O)NC3CCC(C)CC3)cc2)C1=O (configuration not stated)', 'inactive'),
  ('COc1c2occc2cc2ccc(=O)oc12', 'inactive'),
  ('O=C(O)CCNC(=O)c1ccc(N=Nc2ccc(O)c(C(=O)O)c2)cc1', 'inactive'),
  ('Cc1cccc(C)c1OCC(=O)N[C@@H](Cc1ccccc1)[C@@H](O)C[C@H](Cc1ccccc1)NC(=O)[C@H](C(C)C)N1CCCNC1=O', 'inactive'),
  ('CN1CCC(=C2c3ccccc3CCc3sccc32)CC1', 'inactive'),
  ('Cc1ccc(C(=O)c2cc(O)c(O)c([N+](=O)[O-])c2)cc1', 'inactive'),
  ('COC(=O)[C@H](Cc1ccccc1)NC(=O)[C@@H](N)CC(=O)O (H-Asp-Phe-OMe)', 'inactive'),
  ('O=C(NCC1CCCCN1)c1cc(OCC(F)(F)F)ccc1OCC(F)(F)F (configuration not stated)', 'inactive'),
  ('CC(S)C(=O)NCC(=O)O (configuration not stated)', 'inactive'),
  ('COCCCOc1ccnc(CS(=O)c2nc3ccccc3[nH]2)c1C (configuration not stated)', 'inactive'),
  ('COc1cc(OC)c(C(=O)CCCN2CCCC2)c(OC)c1', 'inactive'),
  ('Cc1nc(Nc2ncc(C(=O)Nc3c(C)cccc3Cl)s2)cc(N2CCN(CCO)CC2)n1', 'active'),
  ('Nc1ccc(S(N)(=O)=O)cc1', 'inactive'),
  ('CCc1nc(N)nc(N)c1-c1ccc(Cl)cc1', 'inactive'),
  ('COC1=C(OC)C(=O)C(CCCCCCCCCCO)=C(C)C1=O', 'inactive'),
  ('CCCCc1ccc2nc(NC(=O)OC)[nH]c2c1', 'inactive'),
  ('c1cnc2cc3c(cc2n1)C1CNCC3C1', 'inactive'),
  ('CC(C)[C@H](N)C(=O)OCCOCn1cnc2c(=O)[nH]c(N)nc21', 'inactive'),
  ('Clc1ccc(C(Cn2ccnc2)OCc2c(Cl)cccc2Cl)c(Cl)c1 (configuration not stated)', 'inactive'),
  ('CC(=O)O[C@H]1C(=O)[C@@]2(C)C([C@H](OC(=O)c3ccccc3)[C@]3(O)C[C@H](OC(=O)[C@H](O)[C@@H](NC(=O)c4ccccc4)c4ccccc4)C(C)=C1C3(C)C)[C@]1(OC(C)=O)CO[C@@H]1C[C@@H]2O (some centres not stated)', 'inactive'),
  ('CCCS(=O)c1ccc2nc(NC(=O)OC)[nH]c2c1 (configuration not stated)', 'inactive'),
  ('CCN(CC)C(=S)SSC(=S)N(CC)CC', 'active'),
  ('CCOC(=O)c1c(C)n(C)c2ccc(O)cc12', 'inactive'),
  ('O=C1CCc2ccc(OCCCCN3CCN(c4cccc(Cl)c4Cl)CC3)cc2N1', 'inactive'),
  ('c1ccc2[nH]c(-c3cscn3)nc2c1', 'inactive'),
  ('Cc1ccc(C)c(OCCCC(C)(C)C(=O)O)c1', 'inactive'),
  ('COC(=O)C1=C(C)NC(C)=C(C(=O)OC(C)C)C1c1cccc2nonc12 (configuration not stated)', 'inactive'),
  ('CC[C@]1(O)C[C@H]2CN(CCc3c([nH]c4ccccc34)[C@@](C(=O)OC)(c3cc4c(cc3OC)N(C=O)[C@H]3[C@@](O)(C(=O)OC)[C@H](OC(C)=O)[C@]5(CC)C=CCN6CC[C@]43[C@@H]65)C2)C1', 'inactive'),
  ('Cc1c(OCC(F)(F)F)ccnc1CS(=O)c1nc2ccccc2[nH]1 (configuration not stated)', 'inactive'),
  ('CC1=C(C(=O)O)N2C(=O)[C@@H](NC(=O)[C@H](N)C3=CCC=CC3)[C@H]2SC1', 'inactive');
